Below: a set of entries, each annotated with reported kon.
# system: SARS-CoV-2 spike S2 protein (SARS-CoV-2, UniProt P0DTC2 686-1213)
// units = M⁻¹ s⁻¹; emit number, no label

Use the examples below as a reference point.
INSERT INTO measurements (binder, resultnumber) VALUES
  ('AB-009363 (antibody, V domains shown) VH: EVQLLESGGGLVQPGGSLRLSCAASGFTFSSFAMTWIRQAPGKGLEWISAIGGDGGATYYVDSIKGRFTISRDNSKNTVYLHMNGLRVEDTAVYYCATPSPTRYSWGQGTLVTVSS VL: DIVMTQSPDSLAVSLGERATLNCKSSQSVLYSSNNKNYLAWYQQKPGQPPKLLFYWASTRQSGVPDRFSGSGSGTDFTLTISSLQAEDGAVYYCQQYHKTPHTFGQGTKLEIK', 8330),
  ('AB-009095 (antibody, V domains shown) VH: EVQLVQSGAEVKKPGESLIISCTGSGYTFATFWITWVRQMPGKGLEWLGRIDPSDSYTNYNPSFQGHVTVSVDRSINTAYLELTSLKASDTAIYYCARQMYNTGWPIPNYSDYWGQGTLVTVSS VL: QSALTQPPSASGSPGQSVTISCAGASTDVGVYNFVSWYQQHPGKAPKLIIFDVNKRPSGVPDRFSGSKSGNTASLTVSGLQAEDEADYYCSSYEVGNNFVFGTGTKVTVL', 1220);

Consider the record given below.
Please give measured kon of the following entry: AB-009291 (antibody, V domains shown) VH: EVHLLESGGGLVQPGGSLRLSCAASGFTFTTYAMFWVRQAPGKGLEWVSAINAGGAKTHYADSVRGRFTISRDNSKSTLYLHMDRLRVGDTAIYYCAKVPSYIYDSRDDYLDFWGQGTLVTVSS VL: EIVLTQSPATLSLSPGERATLSCRASQSVSSYLAWYQQRPGQAPRLLIYDASSRATGIPVRFSGSGSGTDFTLTISSLEPEDFAVYYCQQRSDWPLLTFGGGTKVEIK
18900
